# procedure_details: yeast display, Sf9 membrane polyspecificity reagent, FACS + sequencing; frameworks hold sequencing errors
measured_quantity: polyreactivity (PSR sort gate)

QDQVVESGGGVVQAGGSLRLICAAYGSTLRYYDMGWYRQAPGKERELVAAISRGCSTYYADSVKGRFTISRDNAKNTVYLLMNSLKPEETAVFYCNKEYPSSYEYDYWGQGTQVTVSS	low polyreactivity
QVQLVESGGGLVQAGGSLRLSCAASGRTCGKYAMGWYRQAPGKERELVATISRSGGSTYYADSVKGRFTISRDTAKYTVYLQMNSLKPEDTAVYYCNAVTSRYIWPPVLDRYHYWGQGTQVTLSS	high polyreactivity
QVQLVESGVGLVQAGGSLRLSCAASGFIFNYNTMGWYRQAPGKERELVAAISSSGGSTYYADSVKGRFTISRDNAKNTVYLQMNSLKPEDTAVYYCAAGANAQRVPNGDYWGQGTQVTVSS	low polyreactivity
QVQLVESGGGLVQAGGSLRLSCAPSGIIYRYYGMVWYRQAPGKERELVAVITNSDGSTYYADSVKGRFTISRDNAKNTVYLQQYSLKPEDTAVYYCAARGITSRQRYYWGQGTQVTVSS	low polyreactivity

Consider now this further sequence.
## Task Provide one value: measured polyreactivity (PSR sort gate) of QGQLVESGGGLVQAGGSLRLSCAASGRTFQYYAMGWYRQATGKERELVAAITTVGSTKYADSVKGRFTISRDNAKNTVYLQMNSVKPEDTAVYYCAAGYRTRSGHRVPYSDYSWGQGTQVTVSS
## Result high polyreactivity

###

# procedure_details: yeast display, Sf9 membrane polyspecificity reagent, FACS + sequencing; frameworks hold sequencing errors
measured_quantity: polyreactivity (PSR sort gate)

Worked set:
QVQLVESGGGLVQAGGSLRLSCDASGSTFDQYVMGWYRQAPWKERELVAAISVSGGRTYYADSVKGRFTISRDNAKNTVYLQMKSLKPDDTAVYYCNAPKRYSSIGYDYWGQGTQVTVSS	high polyreactivity
QVQLGESGGGLVQAGGRLRLSCAASGFTFNTYAMGWYRQAPGKVRALVATITSDGSTTYADSVKGRFTISRDNAKNTVNLQMNSLKPEDTAVYYFNARVWVHRYYYYFTHIITYDYWGQGTQVTVSS	low polyreactivity
QVQLVESGGGLVQAGGSLRLSCAASGITFRWYAMGWYRQAPGKERELVAAISSSGGSTYYADSVKGRFTISRDNAKNTVYLQMNSLKPEVTAVYYCAAYTSYASDYWGQGTQVTVSS	high polyreactivity
QVQLVESGGGLVEAGGSLRLSCAASGLTIRWYAMGWYRQAPGKESEVVATISSGGSTNYADSVKGRFTISRDNAKNTVYFQMNSLTPEDTAVYYCNAYFRGYYHATIGMDYWGQGTQVTVSS	high polyreactivity
QVQLVESGGGLVQAGGSLRLICAASVSIFKAYAMGWYRQAPGKEMELVARIRYRGGSTYYADSVKGRFTISRDNAKNTVYLQMNSLKPEDTAVYYCAARFSPYHTDRGDYWGQGTQVTVSS	high polyreactivity

Now for a further sequence.
## Task Give recorded polyreactivity (PSR sort gate). QVQLVESGGGLVQSGGSLRLSCAASGITFYVYTMGWYRQAPGKERELVAAINGSGGSTNYADSVKGRFTISRDNAKNTVHLQMNSLKPEDTAVYYCAADWSLRLYDYWGQGTQVTVSS
## Result low polyreactivity

###

# procedure_details: yeast display, Sf9 membrane polyspecificity reagent, FACS + sequencing; frameworks hold sequencing errors
measured_quantity: polyreactivity (PSR sort gate)

Some sequences with recorded polyreactivity (PSR sort gate):
QVQLVESGGGLVQAGGSLRLSFAASGRTFEPYPLGWYRQAPGKERELVAAIDVGDGTTYYAYSVKGRFTISRDNAKYTVYLELNSLKPEDTAVYYCAADVIGFVGSEDYWGQGTQVTVSS	low polyreactivity
QVQLVESGGGLVQAGGSLRLSCAASGNTFSDYAMGWYRQAPGKERELVAAISSSGVRTYYADSVKGRFTISRDNAKNTVYLQMNSLKPEDTAVYYCNAGYVRRYYPASGYGYWGQGTQVTVSS	high polyreactivity
QVHLVESGGGLVQAGGSLRLSSAASGSTFPVYAMGWYRQAPGKERELVASISSGGSTYYADSVQGRFTISRDNAKNSVYFQKNSLKPEDTAVYYCAKDPWVDSFVIYDDWGQGTEVTVSS	low polyreactivity
QVQLVESGGGLVQAGGTLRLSCAASGRIFGYNDMGWYRQAPGKERELVAAINRTGGSTYYADSVKGRFTISRDNAKNTVYLQMNSLKPEDTAVYYCNADARTKWVQTHTDFITDYDYWGQGTQVTVSS	low polyreactivity

## Task Determine its reported polyreactivity (PSR sort gate): QVQLVESGGGLVQAGGSLRESCAASGRIFYGNAMGCYRQAPVKERELVAAISSGTSTNYADSVKGRFTISRDNAKNTVYLEMNSLKPEDTGVYYCAAGSYSRYLYSLYFDFDYWGQGTQVTVSS
## Result low polyreactivity

## Task For QVQLVESGGGLVQAGGSLRLSCAASGSIFPKYAMGWYRQAPGKERELVATISYRGGRTYYADSVKGRFTISRDNAKNTVYLQMYSLKPEDTAVYYCATRYPYYPFYVGIYELDYWGQGTQVTVSS , write its polyreactivity (PSR sort gate).
## Result low polyreactivity

## Task Supply polyreactivity (PSR sort gate) value. Item: QVQLVESGGGLVQAGGSLRLSCAASGIIFNYYTMGWYRQAPGKERELVAVITSRGSSPYYADSVKGRFTISRDNAKNTVNLQMNSLKPDDTAVYYCAKVRPYLDTNEYYYWGQGTQVTVSS
## Result high polyreactivity

###

# procedure_details: yeast display, Sf9 membrane polyspecificity reagent, FACS + sequencing; frameworks hold sequencing errors
measured_quantity: polyreactivity (PSR sort gate)

QVQLVESGGGLVQAGGSLRLSCAASGRIFHWYAMGWYSQAPGKERELVAAISTDGSTYYADSVKGRFTISRDNAKNTVYLQKNSLKPEDTAVYYCAAVPGYTHLWGGPFDYGGQGTQVTVSS	low polyreactivity
QVQLVESGGGLVQAGGSLRLSCAASGSIFVGYAMGRYRQAPGKERELVAAISSRGGSTYYADSVKGRFTISRDNAKNTVYLQMNSLKPEDTGVYYCAAEYRAWWYEYDYWGQGTQVTVSS	high polyreactivity
QVQLVESGGVLVQAGGRLGLSCAASGSTLRAYAMGWYRQATGKVRELVATISSGGRTYYADSVKGRFTISRDNAKNTVYLQMNSLKPEDTAVYYSAKREHGFFYYTYDYWGQGTQVTVSS	low polyreactivity
HVQLVESGGGLVQAGGSLRLSCAASGRTFYIYAMGWYRKAPGKERELVAAITWSGGTTYYADSVKGRFTISRDNAKNPVYLQMTSLKPEDTAVYYCAADSYGFYLESYYWGQGTQVTVSS	low polyreactivity
QVQLVESGGGLVQAGGSLRLSCAASGFIFRRYVMGWYRQAPGKERELVAAISYGGGSTYYADSVKGRFTISRDNAKNTVYLQMNSLKPEDTAVYYCAARVYYDAYDYWGQGTQVTVSS	high polyreactivity
QVQLVESGGGLVQAGGSLRLSCAASGRIFNKNAMGWYRQAPGKERELVAAITYSGGSTYYADSVKGRFTISRDNAKNTVYLQMNSLKPEDTAVYYCARDLYYVYSFAPYRYEYWGQGTQVTVSS	low polyreactivity
QVQLVESGGGLLQAGGSLRLSCAASGSTFDIYAMGWYRQAPGKERELVAVISGGDGSTYYADSVKGRFTISRENAKNTVYLQMNSLKPEDTAVYYCAADDISPGYWDGEYDCWGQGTQVTVSS	low polyreactivity
QVQLVESGGGLVQAGGSLRLSCAASGITLRRNTMGWDRQAPGKERELVAAITRSGGSTYYADSVKGRFTISRDNAKNTVYLQMNSLKPEDTAVYYCAKGPSYGGPSHDYWGQGTQVTVSS	high polyreactivity

## Task Give polyreactivity (PSR sort gate) for the following sequence: QVQLVESGGGLVQAGGSLRLSCAASGLILVYYAMGWYRQAPGKERELVAAITPGGSTKYADSVKGRFTISRDNAKNTVYLQMNSLKPEDTAVYYCYALSGPYWYSVYQSHQDDYWGQGTQVTVSS
## Result low polyreactivity

## Task Identify measured polyreactivity (PSR sort gate) corresponding to QVELVASGGGLVQAGGSLRIRCAASGGIFDGNAKGWYRQAPGKEREMVAAISSGGITKYAASVKGRFTISRDNAQYTVYLQMNSLKPEDSAVYYCAASWDRYRFIRNDYWGQGTQVTVSS
## Result high polyreactivity

## Task Fill in polyreactivity (PSR sort gate) for record QVQLVESGGGLVQAGGSLRLSCAASGSTFTANAMGWSRQAPGKERELVAAISRSGGSTYYADSVKWRFTISRDNAKNTVYLQMNSLKPEDTAVYYCAAESPLFSPPDGEDYWGQGTQVTVSS
## Result low polyreactivity

###

# procedure_details: yeast display, Sf9 membrane polyspecificity reagent, FACS + sequencing; frameworks hold sequencing errors
measured_quantity: polyreactivity (PSR sort gate)

Some entries whose results are on file:
QGQLVESGGGLVQAGGSLRLSCAASGRIFKYNAMGWYRQAPGKEMELVAVITSGGSTYYADSVKGRFTISRDNAKNTVYLQMNSLKPEDTAVYYCAKKYYIVHKFDYWGQGTQVTVSS	low polyreactivity
QVQLVESGGGLVQAGGSLRLSCAASGSIFRYYTMGWYRQAPGKERELVAGINRGGRTYYADSVKGRYTISRDNAKNTVYLQMNSLKPEDTAVYYCAAVTYYGFDYWGQGTQVTVSS	high polyreactivity
QVQLVESGGGLVQAGGSLRLSCAASGRNIWGYTMGWYRQAPGKERDLVAAIRFTSGSTYYADSVKGRFTISRDNAKNSVYLQMNSLKPEDTAVYYCATPYVQTGSGYTGVYWGQGTQVTVSS	high polyreactivity
QVQLEESVGGLVQAGGSLRLSCAASGSISYKYLMGWYRQAPGKEREFVASMTRIGGSTYYADSVKGRFTISRDNAKNTVYLQMNSLNAEDTAVYYCAADYAIGRLRRGDDYWGQGTQVTVSS	low polyreactivity
QVQLVESGGGLVQAGGSLRLSCAASGSIFAWYGMGWYRQAPGKERELVAAITSTGSTYYADSVKGRFTISRDNAKNTVYLQMNSLKPEDTAVYDCNAYSVYLWRPGDYWGLGTQVTVSS	low polyreactivity

## Task Could you please provide reported polyreactivity (PSR sort gate) for QVQLVESGGGLVQAGGSLRLSCAASGRIFGGNAMGWYRQAAGKERELVAGITGSGGSTYYADSVKGRFTISRDNAKNTVYLQMISLKPEDTAVYYCAAGYTYYYPSSGFDYWGQGTQVTVSS ? Thanks!
## Result low polyreactivity

## Task Determine from records and report polyreactivity (PSR sort gate) for QVQLVESGGGLVQAGGSLRLSCAASGSIFYRNAMGWYRQAPGKERELVAAISSDGSTNYADSVKVRFTISRDNAKNTVYLQMNSLKPEDTAVYYCAAPWTQILDYWGQGTQVTVSS
## Result low polyreactivity

## Task Fill in reported polyreactivity (PSR sort gate) for this entry: QVQLVESGGGLVQAGGSLRLSCAASGFTFTRNAMGRYRQAPGKERELVAAITSSGGRTYYADSVKGRFTISRDNAKNTVYLQMNSLKPVDTAVYYCAVYPRYSLPARDYDYWGQGTQVTVSS
## Result high polyreactivity
